Source of measurements: ChEMBL document CHEMBL1135162

- Test system: Cryptococcus neoformans
- METHOD DESCRIPTION: Tested for in vitro antifungal activity against Cryptococcus neoformans TIMM1855
- Type: functional
OBSERVED PROPERTY: MIC (µg/mL)
Give a bare numeral; the unit µg/mL is implied.

>>> observed_measurement("CO[C@H]1CN(Cc2ccc(C#N)cc2)C[C@H](OCC23C[C@@H]4[C@H](C)CC[C@H]4C4(C=O)CC2C=C(C(C)C)C34C(=O)O)O[C@@H]1C (some centres not stated)")
8
>>> observed_measurement("CO[C@H]1CN(Cc2ccc3c(c2)OCO3)C[C@H](OCC23C[C@@H]4[C@H](C)CC[C@H]4C4(C=O)CC2C=C(C(C)C)C34C(=O)O)O[C@@H]1C (some centres not stated)")
2
>>> observed_measurement("COc1ccc(CN2C[C@H](OCC34C[C@@H]5[C@H](C)CC[C@H]5C5(C=O)CC3C=C(C(C)C)C45C(=O)O)O[C@H](C)[C@@H](OC)C2)cc1 (some centres not stated)")
2
>>> observed_measurement("C=C(Cl)CN1C[C@H](OCC23C[C@@H]4[C@H](C)CC[C@H]4C4(C=O)CC2C=C(C(C)C)C34C(=O)O)O[C@H](C)[C@@H](OC)C1 (some centres not stated)")
0.125
>>> observed_measurement("CO[C@H]1CN(Cc2ccc(Cl)cc2)C[C@H](OCC23C[C@@H]4[C@H](C)CC[C@H]4C4(C=O)CC2C=C(C(C)C)C34C(=O)O)O[C@@H]1C (some centres not stated)")
4

Ask | Which value of MIC has been reported for C=C(C)CN1C[C@H](OCC23C[C@@H]4[C@H](C)CC[C@H]4C4(C=O)CC2C=C(C(C)C)C34C(=O)O)O[C@H](C)[C@@H](OC)C1 (some centres not stated) in the records?
Reply | 0.25

Ask | Which value of MIC has been reported for CO[C@H]1CN(CC2=CCCCC2)C[C@H](OCC23C[C@@H]4[C@H](C)CC[C@H]4C4(C=O)CC2C=C(C(C)C)C34C(=O)O)O[C@@H]1C (some centres not stated) in the records?
Reply | 8

Ask | Which value of MIC has been reported for C=C(CF)CN1C[C@H](OCC23C[C@@H]4[C@H](C)CC[C@H]4C4(C=O)CC2C=C(C(C)C)C34C(=O)O)O[C@H](C)[C@@H](OC)C1 (some centres not stated) in the records?
Reply | 0.25
